- target.under.test: EGFR L858R/T790M (Homo sapiens (Human), UniProt P00533, L858R/T790M)
- Sequence (P00533 25-1210 T790M/L858R): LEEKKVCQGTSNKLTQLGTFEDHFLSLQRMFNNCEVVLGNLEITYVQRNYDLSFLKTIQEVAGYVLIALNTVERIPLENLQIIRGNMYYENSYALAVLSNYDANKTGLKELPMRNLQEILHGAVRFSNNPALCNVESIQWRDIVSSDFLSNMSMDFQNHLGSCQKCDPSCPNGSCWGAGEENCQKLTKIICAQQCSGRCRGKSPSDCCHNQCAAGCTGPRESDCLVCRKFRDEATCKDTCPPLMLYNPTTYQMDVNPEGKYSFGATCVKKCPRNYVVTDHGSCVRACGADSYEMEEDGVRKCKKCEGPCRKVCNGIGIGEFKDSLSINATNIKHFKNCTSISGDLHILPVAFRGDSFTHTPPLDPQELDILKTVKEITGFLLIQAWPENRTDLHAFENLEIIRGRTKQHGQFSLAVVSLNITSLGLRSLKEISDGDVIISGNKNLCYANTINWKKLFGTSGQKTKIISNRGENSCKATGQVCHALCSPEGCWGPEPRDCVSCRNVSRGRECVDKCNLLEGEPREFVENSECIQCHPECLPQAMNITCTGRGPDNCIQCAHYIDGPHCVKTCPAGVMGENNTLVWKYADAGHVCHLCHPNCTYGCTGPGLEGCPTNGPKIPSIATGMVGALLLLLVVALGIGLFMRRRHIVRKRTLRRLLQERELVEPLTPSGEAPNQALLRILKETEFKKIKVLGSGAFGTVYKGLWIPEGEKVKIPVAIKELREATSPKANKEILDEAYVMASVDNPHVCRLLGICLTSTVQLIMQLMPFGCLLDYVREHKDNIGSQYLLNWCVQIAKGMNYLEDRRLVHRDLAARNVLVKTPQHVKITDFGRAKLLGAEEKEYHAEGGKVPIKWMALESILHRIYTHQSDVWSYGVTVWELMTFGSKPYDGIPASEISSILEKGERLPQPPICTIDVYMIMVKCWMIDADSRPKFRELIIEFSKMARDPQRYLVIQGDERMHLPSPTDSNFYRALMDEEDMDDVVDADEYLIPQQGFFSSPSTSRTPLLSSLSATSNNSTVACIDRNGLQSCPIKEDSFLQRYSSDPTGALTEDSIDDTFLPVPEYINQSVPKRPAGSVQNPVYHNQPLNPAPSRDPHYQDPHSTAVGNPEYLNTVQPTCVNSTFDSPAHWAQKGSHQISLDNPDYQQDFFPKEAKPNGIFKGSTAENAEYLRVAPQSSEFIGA
- method.summary: HTRF-based EGFR biochemical assay (L858R/T790M)
- experimental.setup: 100 μM ATP
assay.readout: IC50 (nM)

| compound | IC50 / nM |
| --- | --- |
| CN1CCC(c2ccc(-c3cc4c(cn3)CN(C(C(=O)Nc3nccs3)c3cccc(F)c3)C4=O)cc2)CC1 (stereo not drawn) | 6 |

(I) CN1CCN(c2ccc(-c3cnc4c(c3)C(=O)N(C(C(=O)Nc3nccs3)c3cccc(F)c3)C4)cn2)CC1 (stereo not drawn)
(II) CN1CCC(c2ccc(-c3ccc4c(n3)C(=O)N(C(C(=O)Nc3nccs3)c3cccc(F)c3)C4)cn2)CC1 (stereo not drawn)
**Q:** Field: lower IC50 | Options: I / II // respond with label for picked entry
**A:** I

Hey, just so you know, these numbers are from patent US12377080B2.
